# Test system: Nucleic Acid
# PROTOCOL_DESCRIPTION: Binding affinity to duplex DNA dA22.dT22 assessed as change in melting temperature at 3 uM by UV analysis at 260 nm
# Assay type: nucleic-acid assay
Give condition met when the value for ΔTm is at least 5 °C. Give condition not met when it is less.

The following molecules have reported results that may help.
SUBSTANCE_SMILES	DISCRETE_LABEL
CN1CCN(c2ccc3[nH]c(-c4ccc5[nH]c(-c6ccc(OCCOCCOCCN(CCOCCOCCNC(=S)NCCSCC[C@H]7O[C@@H](O[C@H]8[C@H](O)[C@@H](N)C[C@@H](N)[C@@H]8O[C@H]8O[C@H](CN)[C@@H](O)[C@H](O)[C@H]8N)[C@H](O)[C@@H]7O[C@@H]7O[C@H](CN)[C@H](O)[C@@H](O)[C@@H]7N)C(=O)CCCc7ccc8ccc9cccc%10ccc7c8c9%10)cc6)nc5c4)nc3c2)CC1	condition met
CN1CCN(c2ccc3[nH]c(-c4ccc5[nH]c(-c6ccc(OCCOCCOCCN(CCOCCOCCN)C(=O)CCCc7ccc8ccc9cccc%10ccc7c8c9%10)cc6)nc5c4)nc3c2)CC1	condition met
CN1CCN(c2ccc3[nH]c(-c4ccc5[nH]c(-c6ccc(O)cc6)nc5c4)nc3c2)CC1	condition met
NC[C@@H]1O[C@H](O[C@H]2[C@@H](O)[C@H](O[C@@H]3[C@@H](O)[C@H](N)C[C@H](N)[C@H]3O[C@H]3O[C@H](CN)[C@@H](O)[C@H](O)[C@H]3N)O[C@@H]2CO)[C@H](N)[C@@H](O)[C@@H]1O	condition not met
CN1CCN(c2ccc3[nH]c(-c4ccc5[nH]c(-c6ccc(OCCOCCOCCOCCOCCOCCNC(=S)NCCSCC[C@H]7O[C@@H](O[C@H]8[C@H](O)[C@@H](N)C[C@@H](N)[C@@H]8O[C@H]8O[C@H](CN)[C@@H](O)[C@H](O)[C@H]8N)[C@H](O)[C@@H]7O[C@@H]7O[C@H](CN)[C@H](O)[C@@H](O)[C@@H]7N)cc6)nc5c4)nc3c2)CC1	condition met

Problem: Entry Nc1ccc2ccc3cccc4ccc1c2c34 : is its ΔTm no less than 5 °C?
Result: condition not met
